All values here come from patent US12649722B2.

Tested on: ZEAMX
Assay: Post-emergence Test, ZEAMX
Format: in vivo
Conditions: sprayed after 8 days cultivation, 1000 g/ha, evaluated after 13 days
Below: a set of entries, each annotated with reported percentage damage caused to the plant, ZEAMX.
REPORTED PROPERTY: percentage damage caused to the plant, ZEAMX

>  <COMPOUND>
CCOC(=O)c1nn(-c2ccc(OC(F)(F)F)cc2)c2cccc(-n3cc(C(F)(F)F)cn3)c2c1=O [Compound P31]

>  <RESULT>
0 (0=0%)

$$$$
>  <COMPOUND>
O=C(O)c1nn(-c2ccc(OC(F)(F)F)cc2)c2cccc([N+](=O)[O-])c2c1=O [Compound P40]

>  <RESULT>
1 (1=10-20%)

$$$$
>  <COMPOUND>
CCOC(=O)c1nn(-c2ccc(OC(F)(F)F)cc2)c2cccc(C#N)c2c1=O [Compound P38]

>  <RESULT>
2 (2=21-40%)

$$$$
>  <COMPOUND>
CCOC(=O)c1nn(-c2ccc(OC(F)(F)F)cc2)c2cccc(-n3ncc(C(F)(F)F)n3)c2c1=O [Compound P34]

>  <RESULT>
0 (0=0%)

$$$$

###

System: ABUTH
Assay: Pre-emergence Test, ABUTH
Type: in vivo
Details: 1000 g/ha, evaluated after 13 days
Below: a set of entries, each annotated with reported percentage damage caused to the plant, ABUTH.
REPORTED PROPERTY: percentage damage caused to the plant, ABUTH

>  <MOLECULE SMILES>
CCOC(=O)c1nn(-c2ccc(OC(F)(F)F)cc2)c2cccc(N3CCOCC3)c2c1=O

>  <RESULT>
0 (0=0%)

$$$$
>  <MOLECULE SMILES>
CCOC(=O)c1nn(-c2ccc(OC(F)(F)F)cc2)c2cccc(-n3cc(Cl)cn3)c2c1=O

>  <RESULT>
2 (2=21-40%)

$$$$
>  <MOLECULE SMILES>
O=C(O)c1nn(-c2ccc(OC(F)(F)F)cc2)c2cccc(N3CCCCC3)c2c1=O

>  <RESULT>
1 (1=10-20%)

$$$$
>  <MOLECULE SMILES>
CCOC(=O)c1nn(-c2ccc(OC(F)(F)F)cc2)c2cccc([N+](=O)[O-])c2c1=O

>  <RESULT>
1 (1=10-20%)

$$$$
>  <MOLECULE SMILES>
N#Cc1cccc2c1c(=O)c(C(=O)O)nn2-c1ccc(OC(F)(F)F)cc1

>  <RESULT>
1 (1=10-20%)

$$$$
>  <MOLECULE SMILES>
COc1ccc(-n2nc(C(=O)O)c(=O)c3c(C#N)cccc32)cc1OC

>  <RESULT>
0 (0=0%)

$$$$

###

System: Solarium nigrum (SOLNI)
Assay: Post-emergence Test, SOLNI
Format: in vivo
Conditions: sprayed after 8 days cultivation, 1000 g/ha, evaluated after 13 days
REPORTED PROPERTY: percentage damage caused to the plant, SOLNI

>  <MOLECULE SMILES>
CC(=O)c1cccc2c1c(=O)c(C(=O)O)nn2-c1ccc(OC(F)(F)F)cc1

>  <RESULT>
4 (4=61-80%)

$$$$
>  <MOLECULE SMILES>
COC(=O)c1nn(-c2ccc(OC(F)(F)F)cc2)c2cccc(-c3ccc(F)cc3)c2c1=O

>  <RESULT>
0 (0=0%)

$$$$
>  <MOLECULE SMILES>
N#Cc1cccc2c1c(=O)c(C(=O)O)nn2-c1ccc(OC(F)(F)F)cc1

>  <RESULT>
3 (3=41-60%)

$$$$

###

Test system: ABUTH
Assay: Pre-emergence Test, ABUTH
Format: in vivo
Conditions: 1000 g/ha, evaluated after 13 days
REPORTED PROPERTY: percentage damage caused to the plant, ABUTH

>  <COMPOUND>
O=C(O)c1nn(-c2ccc(OC(F)(F)F)cc2)c2cccc(C(F)F)c2c1=O

>  <RESULT>
0 (0=0%)

$$$$
>  <COMPOUND>
CCOC(=O)c1nn(-c2ccc(OC(F)(F)F)cc2)c2cccc(-n3cc(C(F)(F)F)cn3)c2c1=O

>  <RESULT>
0 (0=0%)

$$$$
>  <COMPOUND>
O=C(O)c1nn(-c2ccc(OC(F)(F)F)cc2)c2cccc(N3CCOCC3)c2c1=O

>  <RESULT>
0 (0=0%)

$$$$
>  <COMPOUND>
C=Cc1cccc2c1c(=O)c(C(=O)O)nn2-c1ccc(OC(F)(F)F)cc1

>  <RESULT>
1 (1=10-20%)

$$$$
>  <COMPOUND>
O=C(O)c1nn(-c2ccc(OC(F)(F)F)cc2)c2cccc(-n3cc(C(F)(F)F)cn3)c2c1=O

>  <RESULT>
0 (0=0%)

$$$$
>  <COMPOUND>
CCOC(=O)c1nn(-c2ccc(OC(F)(F)F)cc2)c2cccc(N3CCCC3)c2c1=O

>  <RESULT>
0 (0=0%)

$$$$
>  <COMPOUND>
O=C(O)c1nn(-c2ccc(OC(F)(F)F)cc2)c2cccc(-c3cc(C(F)F)on3)c2c1=O

>  <RESULT>
0 (0=0%)

$$$$
>  <COMPOUND>
CCOC(=O)c1nn(-c2ccc(OC)c(OC)c2)c2cccc(C#N)c2c1=O

>  <RESULT>
0 (0=0%)

$$$$
>  <COMPOUND>
C=C(OCC)c1cccc2c1c(=O)c(C(=O)OC)nn2-c1ccc(OC(F)(F)F)cc1

>  <RESULT>
3 (3=41-60%)

$$$$
>  <COMPOUND>
O=C(O)c1nn(-c2ccc(OC(F)(F)F)cc2)c2cccc(-n3cc(C(F)(F)F)nn3)c2c1=O

>  <RESULT>
0 (0=0%)

$$$$
>  <COMPOUND>
C=Cc1cccc2c1c(=O)c(C(=O)OCC)nn2-c1ccc(OC(F)(F)F)cc1

>  <RESULT>
2 (2=21-40%)

$$$$
>  <COMPOUND>
C=C(OCC)c1cccc2c1c(=O)c(C(=O)OCC)nn2-c1ccc(OC(F)(F)F)cc1

>  <RESULT>
1 (1=10-20%)

$$$$
>  <COMPOUND>
O=C(O)c1nn(-c2ccc(OC(F)(F)F)cc2)c2cccc(-n3cc(Cl)cn3)c2c1=O

>  <RESULT>
0 (0=0%)

$$$$
>  <COMPOUND>
C/C(=N\O)c1cccc2c1c(=O)c(C(=O)O)nn2-c1ccc(OC(F)(F)F)cc1

>  <RESULT>
2 (2=21-40%)

$$$$
>  <COMPOUND>
CCOC(=O)c1nn(-c2ccc(OC(F)(F)F)cc2)c2cccc(/C(C)=N/O)c2c1=O

>  <RESULT>
1 (1=10-20%)

$$$$
>  <COMPOUND>
CO/N=C(\C)c1cccc2c1c(=O)c(C(=O)O)nn2-c1ccc(OC(F)(F)F)cc1 [Compound P2]

>  <RESULT>
3 (3=41-60%)

$$$$

###

Below: a set of entries, each annotated with reported percentage damage caused to the plant, LOLPE.
Test system: Lolium perenne (LOLPE)
Experiment: Pre-emergence Test, LOLPE
Format: in vivo
Settings: 1000 g/ha, evaluated after 13 days
REPORTED PROPERTY: percentage damage caused to the plant, LOLPE

>  <COMPOUND>
CO/N=C(\C)c1cccc2c1c(=O)c(C(=O)OC)nn2-c1ccc(OC(F)(F)F)cc1 [Compound P1]

>  <TARGET>
Lolium perenne (LOLPE)

>  <RESULT>
4 (4=61-80%)

$$$$
>  <COMPOUND>
COC(=O)c1nn(-c2ccc(OC(F)(F)F)cc2)c2cccc(-c3ccc(F)cc3)c2c1=O

>  <TARGET>
Lolium perenne (LOLPE)

>  <RESULT>
0 (0=0%)

$$$$
>  <COMPOUND>
COC(=O)c1nn(-c2ccc(OC(F)(F)F)cc2)c2cccc(C(C)=O)c2c1=O

>  <TARGET>
Lolium perenne (LOLPE)

>  <RESULT>
4 (4=61-80%)

$$$$
>  <COMPOUND>
O=C(O)c1nn(-c2ccc(Cl)cc2)c2cccc(Oc3ccc(F)cc3)c2c1=O

>  <TARGET>
Lolium perenne (LOLPE)

>  <RESULT>
0 (0=0%)

$$$$
>  <COMPOUND>
O=C(O)c1nn(-c2ccc(OC(F)(F)F)cc2)c2cccc(-c3ncco3)c2c1=O

>  <TARGET>
Lolium perenne (LOLPE)

>  <RESULT>
0 (0=0%)

$$$$
>  <COMPOUND>
CC(=O)c1cccc2c1c(=O)c(C(=O)O)nn2-c1ccc(OC(F)(F)F)cc1

>  <TARGET>
Lolium perenne (LOLPE)

>  <RESULT>
4 (4=61-80%)

$$$$
>  <COMPOUND>
C=C(OCC)c1cccc2c1c(=O)c(C(=O)OC)nn2-c1ccc(OC(F)(F)F)cc1

>  <TARGET>
Lolium perenne (LOLPE)

>  <RESULT>
4 (4=61-80%)

$$$$
>  <COMPOUND>
N#Cc1cccc2c1c(=O)c(C(=O)O)nn2-c1ccc(OC(F)(F)F)cc1

>  <TARGET>
Lolium perenne (LOLPE)

>  <RESULT>
4 (4=61-80%)

$$$$
>  <COMPOUND>
COC(=O)c1nn(-c2ccc(OC(F)(F)F)cc2)c2cccc(C#N)c2c1=O

>  <TARGET>
Lolium perenne (LOLPE)

>  <RESULT>
0 (0=0%)

$$$$
>  <COMPOUND>
C=C(OC)c1cccc2c1c(=O)c(C(=O)OC)nn2-c1ccc(OC(F)(F)F)cc1

>  <TARGET>
Lolium perenne (LOLPE)

>  <RESULT>
5 (5=81-100%)

$$$$
>  <COMPOUND>
CO/N=C(\C)c1cccc2c1c(=O)c(C(=O)O)nn2-c1ccc(OC(F)(F)F)cc1 [Compound P2]

>  <TARGET>
Lolium perenne (LOLPE)

>  <RESULT>
4 (4=61-80%)

$$$$
